Quick list: IC50, ERK phosphorylation in U2OS hGFRAL/hRET cells per entry.
# measurement-target: T1, human GFRAL expressed on cells (human, UniProt Q6UXV0 20-394)
# T1 sequence: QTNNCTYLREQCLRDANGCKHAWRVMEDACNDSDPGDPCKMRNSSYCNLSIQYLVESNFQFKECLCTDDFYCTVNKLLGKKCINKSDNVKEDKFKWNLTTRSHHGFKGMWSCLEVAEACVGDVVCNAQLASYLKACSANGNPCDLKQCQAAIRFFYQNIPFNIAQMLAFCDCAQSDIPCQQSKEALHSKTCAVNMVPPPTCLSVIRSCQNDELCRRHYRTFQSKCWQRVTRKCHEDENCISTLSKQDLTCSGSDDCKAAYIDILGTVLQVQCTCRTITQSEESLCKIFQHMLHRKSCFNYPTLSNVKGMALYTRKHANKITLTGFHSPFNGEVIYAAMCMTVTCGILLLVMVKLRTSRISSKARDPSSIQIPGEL
# assay-details: cell-based or functional assay
Could you give me the number in nM? Just the number is fine.

Example entries begin here.
antibody designated 6G9 (antibody, V domains shown, mouse hybridoma monoclonal) VH: QVQLHQPGAELVKPGASVKLSCKTSGYTFTSYWMQWVKQRPGQGLEWIGEIDPSDSYTNYNQKFKGKATLTVDTSSTTAYMQLSSLTSEDSAVYYCARPLDRSAYYFDYWGQGTTLTVSS VL: DIVLTQSPASLAVSLGQRATISCRASESVDFSGNSFMHWYQQKPGQPPKLLIYRASNLDSGIPARFSGVGSRTDFTLTINPVEADDVATYYCQQSNEDPYTFGGGTKLEIE
0.17
antibody designated 22N5 (antibody, V domains shown, mouse hybridoma monoclonal) VH: QNQLVQSGPELKKPGEIVKISCKTSGYTFTDYSMHWVKKTPGKGFKWMGWINTETGEPTYADDFKGRFAFSLETSANTAHLQITNLKNEDTATYFCVKGTLNYWGQGTTLTVSS VL: DIKMTQSPSSMYASLGERVTITCKASQDIKSYLNWFQQKPGKSPKTLIYRTKRLVDGVPSRFSGSGSGQDYSLTVSSLEYDDVGIYYCLQYVEFPLTFGDGTKLELK
0.9
antibody designated 2B11 (antibody, V domains shown, mouse hybridoma monoclonal) VH: DVQLQESGPGLVKPSQSLSLTCSVTGYSITSGYYWNWIRQFPGNKLEWMGHIANDGSNYYNPFLKHRVSITRDTSKNQFFLKLNSVTIQDTATYYCARGGSYFDYVDYWGQGTTLTVSS VL: DIQMTQTTSSLSASLGDRVTINCRASQDISNYLNWYQQKPDGTVKLLIYYTSRLHSGVPSRFSGSGSGTDYSLTITNLEQEDIATYFCQQGNTLPFTFGSGTKLEIK
0.46

Request: Look at this binder and give its reported IC50, ERK phosphorylation in U2OS hGFRAL/hRET cells. antibody designated 5F12 (antibody, V domains shown, mouse hybridoma monoclonal; also called 5F12 Hybridoma) VH: QVQLKQSGTELVRPGASVKLSCKASGYTFTDYYINWVKQRPGQGLEWIARIYPGNGNTYHNEKFKGKATLTAEKSSSTAYMQLSSLTSEDSAVYFCAREGLYYDYDRYFDYWGQGTALTVSS VL: NIVLTQSPASLAVSLGQRATISCRASESVDTYGNSFMHWYQQKPGQPPKLLIYLASNLESGVPARFSGSGSRTDFTLTIDPVEADDAATYYCHQNNEDPPAFGGGTKLEIK
Response: 0.06

Request: What do you get for antibody designated 2B3 (antibody, V domains shown) VH: EVKLVESGGGLVQPGGSLKLSCAASGFTFSDYFMFWVRQTPEKRLEWVAYISNDGDSTYYPDTVQGRFTISRDNAKNTLYLQMSRLRSEDTAMYYCTRQGAQATLDYWGQGTTLTVSS VL: QIVLTQSPAIMSASLGEEITLTCSASSSVFYMHWYQQKSGTSPKLLIYSTSNLASGIPSRFSGSGSGTFYSLTISSVEAEDAADYYCHQWSSTFGGGTKLEIK ?
Response: 1.48

Request: What do you get for antibody designated 6N16 (antibody, V domains shown, mouse hybridoma monoclonal) VH: QVQLQQSGSELVKPGTSMKLSCKASGYTFTSYNINWVRLRPEQGLEWIGWIFPGDDSIKYNENFRGKATLTTDKSSSTAYMHLSRLTSDDSAVYFCARSGIFYGNNFAYWGQGTLVTVSA VL: DVVMTQAPLILSVTIGQPASISCKSSQSLLDGDGETYLSWLLQRPGQSPKRLIYLVSKLDSGVPDRFTGSGSGTDFTLKISRVEAEDLGVYYCCQSTHFPLTFGAGTKLELK ?
Response: 0.27

Request: What do you get for antibody designated 8C10 (antibody, V domains shown, mouse hybridoma monoclonal) VH: QVQLQQSGVELARPGAAVKLSCKASGYTFANYGLTWVKQRTGQGLEWIGEIYPGSGHTHYNEDFKGKATLTADRSSSTAYMELRSLTSEDSAVYFCARRIQLLLPVGGFVYWGQGTLVTVSA VL: DFVLTQSPATLSVTPGDSVSLSCRASQSISNNLHWYQQKSHESPRLLIKYASQSISGIPSRFSGSGSGTDFTLSINSVETEDFGVYFCQQSNSWPHTFGGGTKLEIK ?
Response: 0.28

Request: What do you get for antibody designated 1B3 (antibody, V domains shown, mouse hybridoma monoclonal) VH: QVHLQQPGAELVKPGASVKLSCKASGFTFTGYNINWVRLRPEQGLEWIGWIFPGDDNAKYNEKFKGKATLTTDKSSNTAYMQLSRLTSEDSAVYFCARTPVLSNYFDYWGQGTTLTVSS VL: DIQMTQSPSSLSASLGGKVTITCKASQDISKYISWYQHKPGKSPRLLIHYTSTLQPGIPSRFSGSGSGRDYSFSISNLEPEDIATYYCLQYDNLYTFGGGTKLEIK ?
Response: 0.57

Request: What do you get for antibody designated 1C1 (antibody, V domains shown, mouse hybridoma monoclonal) VH: QMQLKQSGPGLVQPSQSLSITCTVSGFSLNDYGVHWIRQSPGKGLEWLGVIWSGGRTDYNAAFISRLSISKDNSKSQVFFKMSSLQPQDTAIYYCARWALYFLYGGSMDYWGQGTSVTVSS VL: DVVLTQTPLSLPVSPGDQASISCRSSQSLVHSSGITYLHWYLQKPGQSPKLLIYKLSNRFSGVPDRFSGSGSGTDFTLKISRVEAEDLGVYFCSQSTHVPPWTFGGGTKLEIK ?
Response: 0.61

Request: What do you get for antibody designated 2A9 (antibody, V domains shown, mouse hybridoma monoclonal) VH: EVKLVESGGGLVKPGGSLKLSCAASGFTFSTYAMSWVRQTPEKRLEWVASITSGGTTYYTDSVKGRFTISRDNARNILYLQMSSLRSEDTAMYYCARDGNFYYYGMDYWGQGTSVTVSS VL: DIVMTQSQKFMSTSVGDRVSITCKASQNVGTAVAWYQQKPGQSPKILIYSASNRFTGVPDRFTGSGSGTDFTLTISNMQSEDLADYFCQQYSSYFTFGGGTKLELK ?
Response: 0.94
